- TESTED ON: Induced myeloid leukemia cell differentiation protein Mcl-1 (Homo sapiens) (UniProt Q07820)
- Sequence (Q07820 whole entry, looked up): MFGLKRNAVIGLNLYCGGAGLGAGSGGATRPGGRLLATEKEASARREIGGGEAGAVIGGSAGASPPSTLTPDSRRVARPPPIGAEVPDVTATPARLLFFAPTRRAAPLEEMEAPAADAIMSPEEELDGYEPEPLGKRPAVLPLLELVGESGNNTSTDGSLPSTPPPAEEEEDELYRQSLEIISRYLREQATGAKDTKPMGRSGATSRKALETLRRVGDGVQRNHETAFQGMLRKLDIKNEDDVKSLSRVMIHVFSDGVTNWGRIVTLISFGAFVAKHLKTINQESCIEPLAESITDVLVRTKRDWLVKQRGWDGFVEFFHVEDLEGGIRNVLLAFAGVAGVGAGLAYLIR
- RUN DESCRIPTION: disruptors of Mcl-1 and Bid BH3 peptide – biochemical, TR-FRET, 1536-well, primary screen (AID 1021);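 also: His-tagged Mcl-1 with europium anti-His antibody binding Bid BH3 peptide; 0% = Mcl-1 plus peptide wells and 100% = peptide-only wells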
- REPORTED CONDITIONS: TR-FRET Mcl-1/Bid-Dy647 peptide binding, at 21.7 µM
Out of some 220,000 compounds screened, about 2,100 (0.95%) were called active.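 The calls were made as follows: active = compounds that cut the binding signal by more than half at the single screening dose; inactive = the rest.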 The full list was thinned out, with actives kept by preference.
Your response should consist of one outcome taken from active, inactive

>>> answer_label("CCOC(=O)CNC(=O)CSc1nnc(COc2ccc(Cl)cc2)n1CC")
"active"
>>> answer_label("Cn1nc(C(F)(F)F)c(-c2ccc(F)cc2)c1NC(=O)CSCC(=O)O")
"inactive"
>>> answer_label("C=CCn1c(COc2ccccc2)nnc1SCC(=O)NCC(=O)OCC")
"inactive"

Record lookup: outcome of this test for COc1c(C=O)c(CCN(C)C(=O)c2ccc(F)cc2)cc2c1OCO2 ?
inactive

Record lookup: outcome of this test for O=C(O)c1ccc(NS(=O)(=O)c2cccc3nsnc23)cc1 ?
active

----------
- TESTED ON: Induced myeloid leukemia cell differentiation protein Mcl-1 (Homo sapiens)
- RUN DESCRIPTION: disruptors of Mcl-1 and Bid BH3 peptide – biochemical, TR-FRET, 1536-well, primary screen (AID 1021)
- REPORTED CONDITIONS: TR-FRET Mcl-1/Bid-Dy647 peptide binding, at 21.7 µM
Hit rate of the full screen: of about 220,000 compounds, about 2,100 (0.95%) were called active.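 How the source made its calls: active means compounds that cut the binding signal by more than half at the single screening dose; inactive means the rest.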 The sample as a whole holds a higher share of actives than the screen did.
Your response should consist of one outcome taken from 1.0 for active, 0.0 for inactive

Solved cases (4 shown):
>>> answer_label("CS(=O)(=O)c1ccc2nc(NC(=O)C3CCCCC3)sc2c1")
0.0
>>> answer_label("CCOC(=O)c1c(NC(=O)c2cccs2)sc(C)c1C")
0.0
>>> answer_label("CCOC(=O)N1CCN(Cc2nc(Cc3cccc(C(F)(F)F)c3)no2)CC1")
0.0
>>> answer_label("CCOC(=O)c1cnc(COc2ccccc2Cl)[nH]c1=O")
0.0

Record lookup: outcome of this test for Cn1c(=O)n(C)c2cc(C(=O)Nc3ccc4c(c3)OCO4)ccc21 ?
0.0

Record lookup: outcome of this test for CS(=O)(=O)c1ccc2nc(NC(=O)c3ccc(N4CCCC4=O)cc3)sc2c1 ?
0.0

Record lookup: outcome of this test for O=C(Nc1ccc2c(c1)C(=O)OC2)Nc1cccc2ccccc12 ?
0.0

Record lookup: outcome of this test for CCC(CC)NC(=O)CSc1nnc(-c2c[nH]c3ccccc23)o1 ?
0.0

Record lookup: outcome of this test for O=[N+]([O-])c1ccc(N2CCSCC2)cc1O ?
0.0

Record lookup: outcome of this test for O=C(Nc1ccc2c(c1)OCO2)c1ccc(N2C(=O)c3ccccc3C2=O)cc1 ?
1.0

Record lookup: outcome of this test for O=C(NC1CC1)C1=C[C@H](c2c[nH]c3ccccc23)C[C@H](OCc2ccc(CO)cc2)O1 ?
0.0

Record lookup: outcome of this test for COC(=O)CN1C(C)=Nc2ccc(Br)cc2C1c1ccccc1 (stereo not given) ?
1.0

Record lookup: outcome of this test for Cc1ccc(C2C3=C(Nc4[nH]n(-c5ccccc5)c(=O)c42)c2ccccc2C3=O)cc1 (stereo not given) ?
1.0

Record lookup: outcome of this test for O=c1cc(C(F)(F)F)[nH]c(=O)n1C1CCCCC1 ?
0.0

Record lookup: outcome of this test for CCNCCC(=O)N1c2ccccc2Sc2ccc(NC(=O)OCC)cc21 ?
0.0

Record lookup: outcome of this test for Cc1ccc(-c2nn(-c3cccc(F)c3)cc2CNCCc2ccncc2)o1 ?
0.0

Record lookup: outcome of this test for Cc1c(C(=O)Nc2ccccc2)sc2nc3n(c(=O)c12)CCCCC3 ?
0.0

Record lookup: outcome of this test for CCOC(=O)c1ccc(COC(=O)c2cc(=O)[nH]c3ccccc23)o1 ?
0.0

Record lookup: outcome of this test for O=C(O)CC1(CC(=O)Nc2cccc(C(F)(F)F)c2)CCCC1 ?
0.0

Record lookup: outcome of this test for Cc1ccc(Nc2cc(=O)n(C3CCCCC3)c(=O)[nH]2)cc1C ?
1.0

----------
- TESTED ON: Induced myeloid leukemia cell differentiation protein Mcl-1 (Homo sapiens) (UniProt Q07820)
- RUN DESCRIPTION: disruptors of Mcl-1 and Bid BH3 peptide – biochemical, TR-FRET, 1536-well, primary screen (AID 1021);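 also: His-tagged Mcl-1 with europium anti-His antibody binding Bid BH3 peptide; 0% = Mcl-1 plus peptide wells and 100% = peptide-only wells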
- REPORTED CONDITIONS: TR-FRET Mcl-1/Bid-Dy647 peptide binding, at 21.7 µM, stronger effect = higher value
The campaign covered roughly 220,000 compounds. About 2,100 (0.95%) were called active. The sample as a whole holds a higher share of actives than the screen did.
Kindly return TRUE if reported inhibition is no lower than -20%; return FALSE if it is lower.

>>> answer_label("Cc1cc(C)n(CC(C)NCc2c(C(=O)N3CCOCC3)nc3c(C)cccn23)n1 (stereo not given)")
"TRUE"
>>> answer_label("CCc1ccccc1N1CN(Cc2ccco2)CNC1=S")
"FALSE"
>>> answer_label("CC(C)n1c(=S)[nH]c2cc(C(F)(F)F)ccc21")
"FALSE"
>>> answer_label("Clc1ccccc1CSc1nnc(-c2ccco2)c(-c2ccco2)n1")
"TRUE"
>>> answer_label("CCN(CC)c1ccc(NC(=O)C2CCC(CNc3c(N4CCCC4)c(=O)c3=O)CC2)c(C)c1 (stereo not given)")
"FALSE"

For this compound, is measured inhibition -20% or higher? COc1ccc2nc(NC(=O)NC3CCCCC3)sc2c1
TRUE

For this compound, is measured inhibition -20% or higher? O=c1[nH]c2cccnc2n1-c1ccc([N+](=O)[O-])cc1
TRUE

For this compound, is measured inhibition -20% or higher? O=c1c2[nH]c3ccc(Cl)cc3c2ncn1Cc1ccccn1
TRUE

For this compound, is measured inhibition -20% or higher? COc1ccc(NC(=O)CCN2C(=O)/C(=C/c3ccc4c(c3)OCO4)SC2=S)cc1
TRUE

----------
- TESTED ON: Induced myeloid leukemia cell differentiation protein Mcl-1 (Homo sapiens) (UniProt Q07820)
- RUN DESCRIPTION: disruptors of Mcl-1 and Bid BH3 peptide – biochemical, TR-FRET, 1536-well, primary screen (AID 1021);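 also: His-tagged Mcl-1 with europium anti-His antibody binding Bid BH3 peptide; 0% = Mcl-1 plus peptide wells and 100% = peptide-only wells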
- REPORTED CONDITIONS: TR-FRET Mcl-1/Bid-Dy647 peptide binding, at 21.7 µM, stronger effect = higher value
Screen size: about 220,000 compounds; about 2,100 (0.95%) were called active. Shown is part of a subset that was picked to be rich in actives.
PROPERTY LABEL: inhibition (%)
Give your result in % as a bare value.

Field: example entries. Status: answers known.
>>> reported("Cc1cc(C)c(C2C3=C(Nc4c2c(C)nn4-c2ccccn2)c2ccccc2C3=O)c(C)c1 (stereo not given)")
-27.1
>>> reported("CCOC(=O)c1c(NC(=S)Nc2ccccc2C)sc2c1CCC2")
-25.3
>>> reported("O=c1c2ccccc2nc(CSc2nnnn2-c2ccccc2)n1-c1ccccc1")
67
>>> reported("Cc1[nH]c2ccccc2c1/C=N\\NC(=O)Cn1nnc(-c2ccccc2)n1")
65.2
>>> reported("O=C(Oc1cccnc1)c1cc2ccccc2oc1=O")
19.8
>>> reported("CCOC(=O)c1c(NC(=S)NC(=O)c2ccco2)sc2c1CCCC2")
61.4
>>> reported("CCCCCC(=O)Nc1ccc(-c2cn3cccnc3n2)cc1")
-4.56
>>> reported("CC(C)n1c(=O)[nH]c2cc(C(=O)Nc3ccccc3)ccc21")
-10.9

Look at this compound and give its reported inhibition. Cc1noc(C)c1S(=O)(=O)Nc1ccc(C(=O)N2CCN(c3ccc(F)cc3)CC2)cc1
-10.6

Look at this compound and give its reported inhibition. Nc1nnnn1CC(=O)N/N=C/c1ccc(-c2cccc(Cl)c2)o1
-8.79

----------
- TESTED ON: Induced myeloid leukemia cell differentiation protein Mcl-1 (Homo sapiens) (UniProt Q07820)
- RUN DESCRIPTION: disruptors of Mcl-1 and Bid BH3 peptide – biochemical, TR-FRET, 1536-well, primary screen (AID 1021);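 also: His-tagged Mcl-1 with europium anti-His antibody binding Bid BH3 peptide; 0% = Mcl-1 plus peptide wells and 100% = peptide-only wells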
- REPORTED CONDITIONS: TR-FRET Mcl-1/Bid-Dy647 peptide binding, at 21.7 µM, stronger effect = higher value
In all, about 220,000 compounds went through this assay and about 2,100 (0.95%) were called active. Shown is part of a subset that was picked to be rich in actives.
PROPERTY LABEL: inhibition

Look at this molecule and give its reported inhibition. Cc1ccc(C(=O)OC2=CC(=O)CC(C)(C)C2)cc1
89.4% (active)

Look at this molecule and give its reported inhibition. CCNC(=S)N1CCN(c2ncccn2)CC1
-29.3% (inactive)

Look at this molecule and give its reported inhibition. COC(=O)NNC1=CC(=O)CC(C)(C)C1
-13.6% (inactive)

Look at this molecule and give its reported inhibition. CNC(=S)N1CCN(c2ccccn2)CC1
-63.9% (inactive)

Look at this molecule and give its reported inhibition. COc1cc(CNC2CCCCC2)c(Br)cc1OC1CCCC1
-29.9% (inactive)
